Reference source for all entries: patent US20100063065A1

- TESTED ON: PPARδ (Homo sapiens)
- Construct: fused to amino acids 147-441 of PPARδ downstream of CMV promoter; expressed in transfected cells; host or cells: HEK293 cells, transiently transfected with pFACMV-PPARδ using Fugene
- TEST: Transactivation assay (PPARδ GAL4 assay) in transiently transfected HEK293 cells
- Format: cell-based
- ASSAY CONDITIONS: luciferase reporter, Table 2
pEC50: −log10 of the molar value.
Each record here notes measured pEC50.

[
  {
    "MOLECULE": "CCc1cc(C(=O)c2cc3ccccc3n2C)c(NC(=O)CSCC(=O)O)s1",
    "ASSAY METRIC": "pEC50",
    "ENDPOINT RESULT": "4.52 to 6.00"
  }
]

Ask: What does the data say about its pEC50? Entry: CCc1cc(C(=O)c2ccc(OC(F)(F)F)cc2)c(NC(=O)CN2CC(C)CC2C(=O)O)s1 (mixture of isomers)
Result: 6.00 to 7.00

Ask: One more molecule: CCc1cc(C(=O)c2ccc(Cl)cc2)c(NC(=O)CSc2ccc(OC(C)(C)C(=O)O)cc2)s1
Result: 6.00 to 7.00

Ask: One more molecule: CCc1cc(C(=O)c2ccc(OC(F)(F)F)cc2)c(NC(=O)CN2CCC[C@@H]2C(=O)O)s1
Result: 6.00 to 7.00

* * *

- TESTED ON: PPARδ (Homo sapiens, UniProt Q03181)
- Construct: fused to amino acids 147-441 of PPARδ downstream of CMV promoter; expressed in transfected cells; host or cells: HEK293 cells, transiently transfected with pFACMV-PPARδ using Fugene
- Sequence (Q03181 147-441): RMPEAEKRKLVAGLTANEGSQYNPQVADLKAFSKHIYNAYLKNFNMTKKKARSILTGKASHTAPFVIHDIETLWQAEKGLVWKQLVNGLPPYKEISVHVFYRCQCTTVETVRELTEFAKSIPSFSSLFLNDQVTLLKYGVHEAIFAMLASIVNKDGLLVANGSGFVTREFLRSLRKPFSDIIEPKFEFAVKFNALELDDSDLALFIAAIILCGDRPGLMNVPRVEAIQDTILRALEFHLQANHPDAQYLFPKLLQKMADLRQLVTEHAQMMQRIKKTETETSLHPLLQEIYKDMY
- TEST: Transactivation assay (PPARδ GAL4 assay) in transiently transfected HEK293 cells
- Assay type: cell-based
- ASSAY CONDITIONS: luciferase reporter, Table 1
ASSAY METRIC: EC50

Completed entries (count: 3):
[
  {
    "COMPOUND": "COc1ccc(C(=O)c2cc(Cl)sc2NC(=O)CSCC(=O)O)cc1 [Example 66]",
    "TESTED ON": "PPARδ (Homo sapiens, UniProt Q03181)",
    "EC50": "1000 to 30000 nM"
  },
  {
    "COMPOUND": "CCc1cc(C(=O)c2ccc(OC(F)(F)F)cc2)c(NC(=O)c2ccc(OCC(=O)O)c(C)c2)s1 [Example 101]",
    "TESTED ON": "PPARδ (Homo sapiens, UniProt Q03181)",
    "EC50": "< 100 nM"
  },
  {
    "COMPOUND": "CCc1ccc(C(=O)c2cc(CC)sc2NC(=O)CSCC(=O)O)cc1 [Example 9]",
    "TESTED ON": "PPARδ (Homo sapiens, UniProt Q03181)",
    "EC50": "100 to 1000 nM"
  }
]

Ask: What does the data say about its EC50? Entry: CCc1cc(C(=O)c2ccc(F)cc2)c(NC(=O)CSCC(=O)O)s1 [Example 18]
Result: 1000 to 30000 nM

Ask: One more compound: CCc1cc(C(=O)c2cccc(-c3ccc(F)cc3)c2)c(NC(=O)CSCC(=O)O)s1 [Example 43]
Result: 100 to 1000 nM

Ask: One more compound: CCc1ccc(C(=O)c2cc(CC)sc2NC(=O)CSC(C)(C)C(=O)O)cc1 [Example 10]
Result: 100 to 1000 nM

Ask: One more compound: CCc1cc(C(=O)c2ccc(OC(F)(F)F)cc2)c(NC(=O)CNC(CC(C)C)C(=O)O)s1 (centres unmarked) [Example 77]
Result: < 100 nM

Ask: One more compound: CCc1cc(C(=O)c2ccc(-c3ccc(F)cc3)cc2)c(NC(=O)CSCC(=O)O)s1 [Example 40]
Result: < 100 nM

* * *

- TESTED ON: PPARδ (Homo sapiens, UniProt Q03181)
- Construct: fused to amino acids 147-441 of PPARδ downstream of CMV promoter; expressed in transfected cells; host or cells: HEK293 cells, transiently transfected with pFACMV-PPARδ using Fugene
- TEST: Transactivation assay (PPARδ GAL4 assay) in transiently transfected HEK293 cells
- Assay type: cell-based
- ASSAY CONDITIONS: luciferase reporter, Table 2
pEC50: −log10 of the molar value.
Each record here notes measured pEC50.

Completed entries (count: 5):
[
  {
    "COMPOUND": "CCc1cc(C(=O)c2ccc(F)cc2)c(NC(=O)CSc2ccc(OCC(=O)O)cc2)s1",
    "ASSAY METRIC": "pEC50",
    "ENDPOINT RESULT": "4.52 to 6.00"
  },
  {
    "COMPOUND": "CCc1cc(C(=O)c2ccc(Cl)cc2)c(NC(=O)CCC(C)(C)C(=O)O)s1",
    "ASSAY METRIC": "pEC50",
    "ENDPOINT RESULT": "6.00 to 7.00"
  },
  {
    "COMPOUND": "CCc1cc(C(=O)c2ccc(OC(F)(F)F)cc2)c(NC(=O)C(CC)NCC(=O)O)s1 (centres unmarked)",
    "ASSAY METRIC": "pEC50",
    "ENDPOINT RESULT": "6.00 to 7.00"
  },
  {
    "COMPOUND": "CCc1cc(C(=O)c2ccc(OC(F)(F)F)cc2)c(NC(=O)CSC(CC)C(=O)O)s1 (centres unmarked)",
    "ASSAY METRIC": "pEC50",
    "ENDPOINT RESULT": "> 7.00"
  },
  {
    "COMPOUND": "CCc1cc(C(=O)c2ccc(OC(F)(F)F)cc2)c(NC(=O)CN2CCCC2(C)C(=O)O)s1 (centres unmarked)",
    "ASSAY METRIC": "pEC50",
    "ENDPOINT RESULT": "6.00 to 7.00"
  }
]

Ask: What does the data say about its pEC50? Entry: CCc1cc(C(=O)c2ccc(OC(F)(F)F)cc2)c(NC(=O)CN2[C@@H](CC)CC[C@@H]2C(=O)O)s1
Result: > 7.00

Ask: One more compound: CCc1cc(C(=O)c2ccc(OC(F)(F)F)cc2)c(NC(=O)CCCSCC(=O)O)s1
Result: 6.00 to 7.00

Ask: One more compound: CCc1cc(C(=O)c2ccc(OC(F)(F)F)cc2)c(NC(=O)C(CC)SC(C)C(=O)O)s1 (centres unmarked)
Result: > 7.00

Ask: One more compound: CCc1cc(C(=O)c2ccc(OC(F)(F)F)cc2)c(NC(=O)CCN2CCC[C@@H]2C(=O)O)s1
Result: 6.00 to 7.00

Ask: One more compound: CCc1cc(C(=O)c2ccc(OC(F)(F)F)cc2)c(NC(=O)CN2CCC(C(=O)O)C2)s1 (centres unmarked)
Result: 6.00 to 7.00

Ask: One more compound: CCc1cc(C(=O)c2ccc(OC(F)(F)F)cc2)c(NC(=O)CNC2(C(=O)O)CCC2)s1
Result: > 7.00

Ask: One more compound: CCc1cc(C(=O)c2ccc(OC(F)(F)F)cc2)c(NC(=O)CS[C@@H](C)C(=O)O)s1
Result: > 7.00

Ask: One more compound: CCc1cc(C(=O)c2cc3cc(OC(F)(F)F)ccc3n2C)c(NC(=O)CSCC(=O)O)s1
Result: > 7.00

Ask: One more compound: CCc1cc(C(=O)c2ccc(OC(F)(F)F)cc2)c(NC(=O)CN2CCC(C(=O)O)CC2)s1
Result: 6.00 to 7.00

Ask: One more compound: CCc1cc(C(=O)c2ccc(OC(F)(F)F)cc2)c(NC(=O)CN2[C@@H](C(=O)O)CC[C@@H]2C)s1 (relative stereo) [Example 179]
Result: > 7.00

Ask: One more compound: CCc1cc(C(=O)c2ccc(OC(F)(F)F)cc2)c(NC(=O)C(C)SCC(=O)O)s1 (centres unmarked)
Result: > 7.00

Ask: One more compound: CCc1cc(C(=O)c2ccc(OC(F)(F)F)cc2)c(NC(=O)CCCC(=O)O)s1
Result: 6.00 to 7.00

* * *

Each record here notes measured pEC50.
- TESTED ON: PPARδ (Homo sapiens)
- Construct: fused to amino acids 147-441 of PPARδ downstream of CMV promoter; expressed in transfected cells; host or cells: HEK293 cells, transiently transfected with pFACMV-PPARδ using Fugene
- TEST: Transactivation assay (PPARδ GAL4 assay) in transiently transfected HEK293 cells
- Assay type: cell-based
- ASSAY CONDITIONS: luciferase reporter, Table 1
pEC50: −log10 of the molar value.

Completed entries (count: 2):
[
  {
    "COMPOUND": "CCc1cc(C(=O)c2ccc(OC)cc2)c(NC(=O)CSc2ccc(OCC(=O)O)cc2)s1 [Example 89]",
    "ENDPOINT RESULT": "4.52 to 6.00"
  },
  {
    "COMPOUND": "CCc1cc(C(=O)c2ccc(Oc3ccccc3)cc2)c(NC(=O)CSCC(=O)O)s1 [Example 12]",
    "ENDPOINT RESULT": "6.00 to 7.00"
  }
]

Moving on to the next compound.
Ask: Hello, I am looking for reported pEC50 with PPARδ (Homo sapiens) for CCc1cc(C(=O)c2ccccc2)c(NC(=O)CSCC(=O)O)s1 [Example 14] . Could you help?
Result: 4.52 to 6.00
